Would you kindly list AvgP (average of the SAINT scores) for each of these molecules?
- Target: T1, nSR100 (Mus musculus, UniProt Q8BKA3)
- T1 construct: host or cells: mouse N2A cells
- T1 sequence (Q8BKA3 1-608): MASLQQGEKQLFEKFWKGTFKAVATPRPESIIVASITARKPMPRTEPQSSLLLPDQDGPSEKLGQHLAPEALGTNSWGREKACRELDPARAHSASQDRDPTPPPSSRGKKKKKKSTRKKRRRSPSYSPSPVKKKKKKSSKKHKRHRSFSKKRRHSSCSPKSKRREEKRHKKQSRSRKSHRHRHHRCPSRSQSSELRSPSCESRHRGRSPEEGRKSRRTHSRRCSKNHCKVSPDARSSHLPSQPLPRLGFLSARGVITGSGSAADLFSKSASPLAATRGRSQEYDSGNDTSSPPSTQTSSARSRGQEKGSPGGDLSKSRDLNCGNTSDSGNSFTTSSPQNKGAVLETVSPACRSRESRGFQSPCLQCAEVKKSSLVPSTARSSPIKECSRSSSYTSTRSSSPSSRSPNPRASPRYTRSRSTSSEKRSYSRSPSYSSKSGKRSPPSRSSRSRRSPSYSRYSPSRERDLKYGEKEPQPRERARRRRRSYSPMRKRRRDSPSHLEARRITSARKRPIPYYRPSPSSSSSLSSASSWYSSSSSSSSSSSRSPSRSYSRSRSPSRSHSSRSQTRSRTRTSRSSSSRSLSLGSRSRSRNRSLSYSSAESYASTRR
- Assay Procedure: AP-MS nSR100 interaction partners from mouse N2A cells (Table 5)
- Type: binding
- Condition Set: bait Srrm4
# answer = number (no unit)

Lab note: Fam76b (protein, UniProt Q80XP8 2-339, looked up) Protein FAM76B: AASALYACTKCTQRYPFEELSQGQQLCKECRIAHPIVKCTYCRSEFQQESKTNTICKKCAQNVKQFGTPKPCQYCNIIAAFIGTKCQRCTNSEKKYGAPQTCEQCKQQCAFDRKEEGRRKVDGKLLCWLCTLSYKRVLQKTKEQRKSLGSSHSNSSSSSLTEKDQHHSKHHHHHHHHHHRHSSGHHKVSSLSPEQEQGLWKQSHKSSAAIQNETPKKKPKLESKPSNGDSSSINQSADSGGTDNFVLISQLKEEVMSLKRLLQQRDQTILEKDKKLTELKADFQYQESNLRTKMNSMEKAHKETVEQLQAKNRELLKQVAALSKGKKFDKSGSVLTSP gave AvgP (average of the SAINT scores) of 0.98

Lab note: U2af1 (protein, UniProt Q9D883 2-239, looked up) Splicing factor U2AF 35 kDa …: AEYLASIFGTEKDKVNCSFYFKIGACRHGDRCSRLHNKPTFSQTIALLNIYRNPQNSSQSADGLRCAVSDVEMQEHYDEFFEEVFTEMEEKYGEVEEMNVCDNLGDHLVGNVYVKFRREEDAEKAVIDLNNRWFNGQPIHAELSPVTDFREACCRQYEMGECTRGGFCNFMHLKPISRELRRELYGRRRKKHRSRSRSRERRSRSRDRGRGGGGGGGGGGGRERDRRRSRDRERSGRF gave AvgP (average of the SAINT scores) of 1

Lab note: Ywhaq (protein, UniProt P68254 1-245, looked up) 14-3-3 protein theta: MEKTELIQKAKLAEQAERYDDMATCMKAVTEQGAELSNEERNLLSVAYKNVVGGRRSAWRVISSIEQKTDTSDKKLQLIKDYREKVESELRSICTTVLELLDKYLIANATNPESKVFYLKMKGDYFRYLAEVACGDDRKQTIENSQGAYQEAFDISKKEMQPTHPIRLGLALNFSVFYYEILNNPELACTLAKTAFDEAIAELDTLNEDSYKDSTLIMQLLRDNLTLWTSDSAGEECDAAEGAEN gave AvgP (average of the SAINT scores) of 1

Lab note: Luc7l2 (protein, UniProt Q7TNC4 1-392, looked up) Putative RNA-binding protein …: MSAQAQMRAMLDQLMGTSRDGDTTRQRIKFSDDRVCKSHLLNCCPHDVLSGTRMDLGECLKVHDLALRADYEIASKEQDFFFELDAMDHLQSFIADCDRRTEVSKKRLAETQEEISAEVAAKAERVHELNEEIGKLLAKVEQLGAEGNVEESQKVMDEVEKARAKKREAEEVYRNSMPASSFQQQKLRVCEVCSAYLGLHDNDRRLADHFGGKLHLGFIEIREKLEELKRVVAEKQEKRNQERLKRREEREREEREKLRRSRSHSKNPKRSRSREHRRHRSRSMSRERKRRTRSKSREKRHRHRSRSSSRSRSRSHQRSRHSSRDRSRERSKRRSSKERFRDQDLASRDRDRSSRDRSPRDRDRKDKKRSYESANGRSEDRRSSEEREAGEI gave AvgP (average of the SAINT scores) of 1
